Target: LsRDLR (Laodelphax striatellus RDL GABA receptor) (Laodelphax striatellus, UniProt Q0ECT5, F128Y/Y91F)
Sequence (Q0ECT5 23-487, stated change not applied): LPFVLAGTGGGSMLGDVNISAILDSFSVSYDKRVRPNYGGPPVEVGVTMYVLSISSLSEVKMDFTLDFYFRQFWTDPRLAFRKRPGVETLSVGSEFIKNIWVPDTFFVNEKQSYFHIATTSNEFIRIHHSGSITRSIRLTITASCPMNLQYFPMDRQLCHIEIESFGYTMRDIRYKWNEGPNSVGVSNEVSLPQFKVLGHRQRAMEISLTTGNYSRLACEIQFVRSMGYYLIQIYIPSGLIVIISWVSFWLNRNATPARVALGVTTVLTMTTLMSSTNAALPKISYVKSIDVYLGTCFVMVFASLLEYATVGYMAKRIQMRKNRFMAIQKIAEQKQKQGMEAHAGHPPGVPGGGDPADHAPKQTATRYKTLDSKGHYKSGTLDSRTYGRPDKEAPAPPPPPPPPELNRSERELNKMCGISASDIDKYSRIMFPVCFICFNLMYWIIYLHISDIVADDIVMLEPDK
Experimental protocol: two-electrode voltage clamp, Xenopus oocytes
Assay type: cell-based
Assay readout: EC50 (µM)

[
  {
    "Smiles structure": "NCCCC(=O)O",
    "Unit abbreviation": "µM",
    "Reported result": 37.3
  }
]
